# systemName: F508delCFTR cell surface expression in CFBE41o-F508delCFTR-HRP cells (Homo sapiens, UniProt P13569, DEL508-508)
# Construct: fused on or other part: Horseradish peroxidase (HRP) reporter inserted in the fourth exofacial (extracellular) loop of CFTR; expression is doxycycline-inducible
# Sequence (P13569 with tags, fused parts or gaps DEL508-508 limits assumed): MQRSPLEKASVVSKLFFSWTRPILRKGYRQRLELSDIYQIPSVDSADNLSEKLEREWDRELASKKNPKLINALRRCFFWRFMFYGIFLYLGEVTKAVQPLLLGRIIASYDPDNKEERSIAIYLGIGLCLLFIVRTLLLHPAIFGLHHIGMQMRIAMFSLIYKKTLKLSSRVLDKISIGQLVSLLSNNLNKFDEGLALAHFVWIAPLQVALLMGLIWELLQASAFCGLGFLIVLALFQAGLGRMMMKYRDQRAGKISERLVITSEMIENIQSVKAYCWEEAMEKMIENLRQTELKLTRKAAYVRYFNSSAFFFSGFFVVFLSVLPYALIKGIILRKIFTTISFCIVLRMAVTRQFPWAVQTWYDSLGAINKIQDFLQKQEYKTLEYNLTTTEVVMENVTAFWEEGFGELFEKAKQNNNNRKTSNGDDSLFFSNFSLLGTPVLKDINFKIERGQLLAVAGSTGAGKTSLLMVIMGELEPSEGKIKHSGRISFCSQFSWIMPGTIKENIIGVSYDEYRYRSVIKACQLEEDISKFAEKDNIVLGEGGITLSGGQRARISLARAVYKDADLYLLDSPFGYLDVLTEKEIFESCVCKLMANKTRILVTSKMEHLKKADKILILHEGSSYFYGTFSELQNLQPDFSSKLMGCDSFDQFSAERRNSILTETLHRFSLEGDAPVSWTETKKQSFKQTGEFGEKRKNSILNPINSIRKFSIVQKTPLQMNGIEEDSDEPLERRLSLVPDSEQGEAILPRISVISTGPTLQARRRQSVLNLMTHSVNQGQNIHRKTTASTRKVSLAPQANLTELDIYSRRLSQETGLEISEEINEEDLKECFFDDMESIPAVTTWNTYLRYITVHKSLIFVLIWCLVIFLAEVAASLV
# Sequence (P13569 919-1480 limits assumed, stated change not applied): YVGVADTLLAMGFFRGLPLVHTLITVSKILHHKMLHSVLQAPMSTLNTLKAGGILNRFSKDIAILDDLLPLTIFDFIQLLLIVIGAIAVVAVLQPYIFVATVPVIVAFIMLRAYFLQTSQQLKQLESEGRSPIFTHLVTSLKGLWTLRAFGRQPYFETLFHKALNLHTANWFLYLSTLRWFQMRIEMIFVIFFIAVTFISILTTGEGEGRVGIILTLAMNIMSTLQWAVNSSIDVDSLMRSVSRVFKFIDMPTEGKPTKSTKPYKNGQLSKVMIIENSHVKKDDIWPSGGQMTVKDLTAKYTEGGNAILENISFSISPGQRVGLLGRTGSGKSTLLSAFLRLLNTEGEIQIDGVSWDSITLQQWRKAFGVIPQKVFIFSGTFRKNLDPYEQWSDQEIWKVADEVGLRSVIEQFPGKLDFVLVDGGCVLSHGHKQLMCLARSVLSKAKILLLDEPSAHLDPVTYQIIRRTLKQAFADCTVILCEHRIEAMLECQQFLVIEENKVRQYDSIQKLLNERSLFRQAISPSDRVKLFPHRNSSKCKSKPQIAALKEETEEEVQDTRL
# procedureDetails: Cell Surface Expression-Horse Radish Peroxidase (CSE-HRP) Assay
# Format: cell-based
# experimentalParameters: maximum at any tested concentration, normalized to on-plate positive control (3 μM)
valueKind: Maximum % activity (%)

{"compound": "COc1ccc2c(c1)O[C@@H](c1ccc(C(=O)O)cc1)C[C@H]2NC(=O)[C@]1(C)CCc2cc3c(cc21)OC(F)(F)O3 (single isomer, unassigned) [Example 49]", "val": 116}
{"compound": "C[C@]1(C(=O)N[C@@H]2C[C@H]([C@H]3CC[C@H](C(=O)NC(CO)c4ccccc4)CC3)Oc3cc(OC(F)(F)F)ccc32)COc2cc3c(cc21)OC(F)(F)O3 (stereo partly drawn) [Example 269]", "val": 192}
{"compound": "CC1(C(=O)Nc2cc(-c3ccccc3)nn(C[C@@H](O)CO)c2=O)COc2cc3c(cc21)OC(F)(F)O3 (stereo partly drawn) [Example 25]", "val": 82}
{"compound": "Cc1ccc(NC(=O)C2(C)CCc3cc4c(cc32)OC(F)(F)O4)nc1-c1cccc(C(=O)O)c1 (stereo not drawn) [Example 51]", "val": 153}
{"compound": "COc1ccc2c(c1)O[C@@H](c1cnc(Cl)cn1)C[C@H]2NC(=O)[C@@]1(C)COc2cc3c(cc21)OC(F)(F)O3 [Example 193]", "val": 118}
{"compound": "COc1ccc2c(c1)O[C@@H](c1cccc(C(=O)O)c1)C[C@H]2NC(=O)[C@@]1(C)CCc2cc3c(cc21)OC(F)(F)O3 (single isomer, unassigned) [Example 57]", "val": 99}

---

# systemName: F508delCFTR cell surface expression in CFBE41o-F508delCFTR-HRP cells (Homo sapiens, UniProt P13569, DEL508-508)
# Construct: fused on or other part: Horseradish peroxidase (HRP) reporter inserted in the fourth exofacial (extracellular) loop of CFTR; expression is doxycycline-inducible
# procedureDetails: Cell Surface Expression-Horse Radish Peroxidase (CSE-HRP) Assay
# Type: cell-based
# experimentalParameters: maximum at any tested concentration, normalized to on-plate positive control (3 μM)
Reported Maximum % activity (%) values for a set of molecules
valueKind: Maximum % activity (%)

{"molecule": "C[C@]1(C(=O)Nc2cccc(F)n2)COc2cc3c(cc21)OC(F)(F)O3 [Example 85]", "val": 90}
{"molecule": "C[C@]1(C(=O)Nc2ccc(Cl)c(-c3cccc(C(=O)O)c3)n2)COc2cc3c(cc21)OC(F)(F)O3 [Example 95]", "val": 167}
{"molecule": "C[C@]1(C(=O)N[C@@H]2C[C@H]([C@H]3CC[C@H](C(=O)NCC(O)CO)CC3)Oc3cc(OC(F)(F)F)ccc32)COc2cc3c(cc21)OC(F)(F)O3 (stereo partly shown) [Example 260]", "val": 174}
{"molecule": "Cc1cc(C(=O)O)ccc1-c1cccc(NC(=O)[C@@]2(C)COc3cc4c(cc32)OC(F)(F)O4)n1 [Example 120]", "val": 253}
{"molecule": "Cc1ccc(C(=O)O)cc1-c1cccc(NC(=O)[C@@]2(C)COc3cc4c(cc32)OC(F)(F)O4)n1 [Example 129]", "val": 129}
{"molecule": "COc1ccc2c(c1)O[C@@H](c1cccc(C(=O)O)c1)C[C@H]2NC(=O)[C@]1(C)CCc2cc3c(cc21)OC(F)(F)O3 (single isomer, unassigned) [Example 56]", "val": 107}
{"molecule": "C[C@]1(C(=O)Nc2ccc(N3CCCC3)cn2)COc2cc3c(cc21)OC(F)(F)O3 [Example 80]", "val": 147}

---

Reported Maximum % activity (%) values for a set of compounds
# systemName: F508delCFTR in primary hBE cells with F508del/F508del CFTR mutation (Homo sapiens, UniProt P13569, DEL508-508)
# Construct: cells isolated from CF patients with the homozygous mutation; endogenous in cells; host or cells: primary human bronchial epithelial (hBE) cells from F508del/F508del CF patients
# Sequence (P13569 with tags, fused parts or gaps DEL508-508): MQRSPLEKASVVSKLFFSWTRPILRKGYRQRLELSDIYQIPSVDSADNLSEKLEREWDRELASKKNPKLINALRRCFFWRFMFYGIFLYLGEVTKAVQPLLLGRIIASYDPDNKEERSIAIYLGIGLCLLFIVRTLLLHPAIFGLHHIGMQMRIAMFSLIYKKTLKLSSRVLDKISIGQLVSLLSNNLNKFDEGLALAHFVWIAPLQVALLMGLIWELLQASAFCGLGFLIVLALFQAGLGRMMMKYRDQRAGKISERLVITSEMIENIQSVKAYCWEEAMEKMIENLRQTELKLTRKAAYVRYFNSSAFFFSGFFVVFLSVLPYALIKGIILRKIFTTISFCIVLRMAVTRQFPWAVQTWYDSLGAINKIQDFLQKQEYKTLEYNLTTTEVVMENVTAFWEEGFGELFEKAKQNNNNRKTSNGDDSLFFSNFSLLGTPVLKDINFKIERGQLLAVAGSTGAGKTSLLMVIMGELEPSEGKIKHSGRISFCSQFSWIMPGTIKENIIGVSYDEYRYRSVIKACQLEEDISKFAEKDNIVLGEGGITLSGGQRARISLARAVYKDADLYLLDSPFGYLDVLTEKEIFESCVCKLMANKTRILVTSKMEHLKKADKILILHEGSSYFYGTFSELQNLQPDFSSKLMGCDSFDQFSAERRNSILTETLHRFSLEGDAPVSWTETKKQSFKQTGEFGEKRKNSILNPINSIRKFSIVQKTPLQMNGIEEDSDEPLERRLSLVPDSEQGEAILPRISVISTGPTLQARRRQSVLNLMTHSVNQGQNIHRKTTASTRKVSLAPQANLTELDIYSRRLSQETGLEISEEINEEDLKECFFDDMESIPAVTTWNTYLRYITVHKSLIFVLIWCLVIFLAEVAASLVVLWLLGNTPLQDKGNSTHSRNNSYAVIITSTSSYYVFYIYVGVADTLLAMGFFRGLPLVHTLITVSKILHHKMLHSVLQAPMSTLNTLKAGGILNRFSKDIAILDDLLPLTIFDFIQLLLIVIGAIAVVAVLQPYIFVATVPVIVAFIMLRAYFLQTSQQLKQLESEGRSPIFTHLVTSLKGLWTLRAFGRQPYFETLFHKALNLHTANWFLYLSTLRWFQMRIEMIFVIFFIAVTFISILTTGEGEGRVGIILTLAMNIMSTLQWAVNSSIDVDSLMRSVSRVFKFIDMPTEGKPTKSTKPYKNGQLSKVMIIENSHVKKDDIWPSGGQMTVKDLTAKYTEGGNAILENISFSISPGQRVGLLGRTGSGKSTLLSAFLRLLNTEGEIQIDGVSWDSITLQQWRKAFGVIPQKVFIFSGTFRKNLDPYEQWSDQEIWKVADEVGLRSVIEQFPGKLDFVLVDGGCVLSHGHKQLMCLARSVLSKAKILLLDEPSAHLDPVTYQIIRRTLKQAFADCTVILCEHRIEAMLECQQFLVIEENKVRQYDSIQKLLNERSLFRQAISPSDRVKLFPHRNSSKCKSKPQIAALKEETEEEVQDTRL
# procedureDetails: Transepithelial Clamp Circuit on Human Bronchial Epithelial Cells Conductance Assay (hBE-TECC)
# Type: cell-based
# experimentalParameters: testing concentration 10 μM

{"compound": "Cc1ccc(NC(=O)C2(C)CCc3c2ccc2c3OCO2)cc1-c1cccc(C(=O)O)c1 (stereo not shown)", "Maximum % activity (%)": "77%"}
{"compound": "Cc1ccc(NC(=O)[C@@]2(C)COc3cc4c(cc32)OC(F)(F)O4)nc1-c1ccc(C(=O)O)cc1", "Maximum % activity (%)": "100%"}
{"compound": "CC1(C(=O)Nc2cc(-c3ccccc3)nn(C[C@@H](O)CO)c2=O)COc2cc3c(cc21)OC(F)(F)O3 (stereo partly shown)", "Maximum % activity (%)": "61%"}
{"compound": "CC1(C(=O)Nc2cc(C3CC3)nn(-c3ccc(C(=O)O)cc3)c2=O)COc2cc3c(cc21)OC(F)(F)O3 (stereo not shown)", "Maximum % activity (%)": "47%"}

---

# systemName: F508delCFTR cell surface expression in CFBE41o-F508delCFTR-HRP cells (Homo sapiens, UniProt P13569, DEL508-508)
# Construct: fused on or other part: Horseradish peroxidase (HRP) reporter inserted in the fourth exofacial (extracellular) loop of CFTR; expression is doxycycline-inducible
# procedureDetails: Cell Surface Expression-Horse Radish Peroxidase (CSE-HRP) Assay
# Format: cell-based
# experimentalParameters: maximum at any tested concentration, normalized to on-plate positive control (3 μM)

{"molecule": "COc1ccc2c(c1)O[C@@H](c1ccc(C(=O)N3CCOCC3CO)cn1)C[C@H]2NC(=O)[C@@]1(C)COc2cc3c(cc21)OC(F)(F)O3 (stereo partly shown)", "readoutUnits": "%", "Maximum % activity (%)": 132}
{"molecule": "CC(C)OC(=O)[C@H]1CC[C@H]([C@H]2C[C@@H](NC(=O)[C@@]3(C)COc4cc5c(cc43)OC(F)(F)O5)c3ccc(OC(F)(F)F)cc3O2)CC1", "readoutUnits": "%", "Maximum % activity (%)": 143}
{"molecule": "CCOC(=O)[C@H]1CC[C@@H]([C@@H]2C[C@H](NC(=O)[C@@]3(C)COc4cc5c(cc43)OC(F)(F)O5)c3ccc(OC(F)(F)F)cc3O2)CC1", "readoutUnits": "%", "Maximum % activity (%)": 111}
{"molecule": "CNC(=O)c1cccc(-c2nc(NC(=O)C3(C)COc4cc5c(cc43)OC(F)(F)O5)ccc2C)c1 (stereo not shown)", "readoutUnits": "%", "Maximum % activity (%)": 111}
{"molecule": "CC1(C)COC(C)(C)c2c1n(C[C@@H](O)CO)c1cc(F)c(NC(=O)[C@@]3(C)COc4cc5c(cc43)OC(F)(F)O5)cc21", "readoutUnits": "%", "Maximum % activity (%)": 84}
{"molecule": "COc1ccc2c(c1)O[C@@H](Cn1ncccc1=O)C[C@H]2NC(=O)[C@@]1(C)COc2cc3c(cc21)OC(F)(F)O3", "readoutUnits": "%", "Maximum % activity (%)": 54}
{"molecule": "COc1ccc2c(c1)O[C@@H](c1cnc(C(O)CO)cn1)C[C@H]2NC(=O)[C@@]1(C)COc2cc3c(cc21)OC(F)(F)O3 (stereo partly shown)", "readoutUnits": "%", "Maximum % activity (%)": 139}
{"molecule": "COc1ccc2c(c1)O[C@@H](c1ccc(CO)cn1)C[C@H]2NC(=O)[C@@]1(C)COc2cc3c(cc21)OC(F)(F)O3", "readoutUnits": "%", "Maximum % activity (%)": 118}
{"molecule": "COc1ccc2c(c1)O[C@@H](c1ccc(C(=O)NC(C)CO)cn1)C[C@H]2NC(=O)[C@@]1(C)COc2cc3c(cc21)OC(F)(F)O3 (stereo partly shown)", "readoutUnits": "%", "Maximum % activity (%)": 116}
{"molecule": "CC1(c2cc3cc(NC(=O)[C@@]4(C)COc5cc6c(cc54)OC(F)(F)O6)c(F)cc3n2C[C@@H](O)CO)COC1", "readoutUnits": "%", "Maximum % activity (%)": 92}
{"molecule": "C[C@]1(C(=O)Nc2cc3cc(C4(COCc5ccccc5)CC4)n(C[C@@H](O)COCc4ccccc4)c3cc2F)COc2cc3c(cc21)OC(F)(F)O3", "readoutUnits": "%", "Maximum % activity (%)": 120}
{"molecule": "COc1ccc2c(c1)O[C@@H](c1ccc(CO)nc1)C[C@H]2NC(=O)[C@@]1(C)COc2cc3c(cc21)OC(F)(F)O3", "readoutUnits": "%", "Maximum % activity (%)": 158}
{"molecule": "C[C@]1(C(=O)Nc2cccc(N3CCCCC3)n2)COc2cc3c(cc21)OC(F)(F)O3", "readoutUnits": "%", "Maximum % activity (%)": 136}

This collection of values is drawn from patent US9840513B2.
